Molecular target: Inadl_3, Q8NI35
Sequence (Q8NI35 359-469): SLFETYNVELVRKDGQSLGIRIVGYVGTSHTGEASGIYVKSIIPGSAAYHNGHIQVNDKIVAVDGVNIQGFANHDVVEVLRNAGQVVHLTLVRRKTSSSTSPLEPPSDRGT
Experiment: holdup assay
Set-up: key: below the threshold = too weak to quantify, mostly under pKd 3.1 to 4
Settings: plain residues with an end cap or a label only (N-terminal biotin on a linker: ado-ado)
Outcome Measure: pKd

| Binder | Result Value |
| --- | --- |
| AQRARSPSDV [GPR12, P47775] | below the threshold |
| GEDRSPPTAL [MKNK1, Q9BUB5] | below the threshold |
| KKMLQRRTLL [OR8G1, Q15617] | below the threshold |
| DFLSTFHIRI [CIB2, O75838] | 4.49 |
| SFISKKEWYV [NECTIN1, Q15223] | 4.83 |
| EDLEDEWEVI [TECPR2, O15040] | 4.33 |
| NNNVVKVDSV [MTNR1A, P48039] | below the threshold |
| KPGKGSETVV [FZD4, Q9ULV1] | 3.55 |
| LPAVCYDIDI [PTTG2, Q9NZH5] | 4.63 |
| STKRKLASAV [NCF1, P14598] | below the threshold |

Provide pKd for all items below, preserving their order.
1. LAHVKHKEQI [AQP3, Q92482]
2. IDESKKEWLI [CNTNAP2, Q9UHC6]
3. PTPDLPQTRV [KLHDC7A, Q5VTJ3]

1: below the threshold; 2: 5.46; 3: below the threshold

Could you report pKd for every entry in the following list?
1. RQKEVRESKC [SCN8A, Q9UQD0]
2. GIKKITSTAL [RPS6KA3, P51812]

below the threshold
below the threshold

Below are some binders; for each one, tell me its pKd.
1. NVYGIESVKI [GRIA2, P42262]
2. ARESQKVSHV [FAM110B, Q8TC76]
3. KRPEMTSSSV [MUC3A, MUC3B, Q02505;Q9H195]
4. QSGLYESEEL [MYOT, Q9UBF9]
5. EPQYQPGENL [SRC, P12931]
6. REEPDHSTEV [CCRL2, O00421]
7. QLSFNTDTLC [ABCA2, Q9BZC7]

1. below the threshold
2. below the threshold
3. below the threshold
4. below the threshold
5. below the threshold
6. 3.85
7. below the threshold

For each of the binders below, state pKd.
1. SLNANEVEWF [RNF130, Q86XS8]
2. ILRKSTTTTV [PRR16, Q569H4]

1. below the threshold
2. below the threshold

Numbers sourced from paper PMC9482650.
